Reference source: PubChem BioAssay (NCI)

The following compounds are listed with their measured TGI values.
Tested on: MDA-MB-231 breast
PROTOCOL SUMMARY: NCI tumour cell line growth inhibition, 48 h
Report the figure in µM without appending any unit label.

Recorded TGI, per entry:
compound=O=[N+]([O-])c1cccc(-c2cn3c(n2)Cc2ccccc2C3)c1 attribute_measured=TGI u=µM assay_result=67.6
compound=N#Cc1c(N)nc(SCc2ccccc2)c(C#N)c1-c1ccc(O)cc1 attribute_measured=TGI u=µM assay_result=28.5

[ask] Lab request: please report TGI under test system MDA-MB-231 breast for CC1=NN(c2cccc(Cl)c2)C(=O)/C1=C\C=C\c1ccccc1
[reply] 7.47

[ask] Consider next the compound CC(=O)c1c2c(cc3c1CC1(Cc4cc5c(cc4C1)C(=O)CCC5)C3)CCCC2 (centres undefined) in the same way.
[reply] 55.1

[ask] Consider next the compound CSc1nnc(-c2cc3c([nH]c4ccccc43)c(-c3cccc(O)c3)n2)n1-c1ccc(C)cc1 in the same way.
[reply] 15.8

[ask] Consider next the compound COc1ccc(C[C@@H](C(=O)O[C@H](C)[C@H](NC(=O)[C@@H](CC(C)C)N(C)C(=O)C2CCCN2C(=O)[C@H](C)O)C(=O)N2CCCCNC(=O)[C@@H](C)C(=O)[C@H](C(C)C)OC(=O)C[C@H](O)[C@H]2CC(C)C)N(C)C(C)=O)cc1 (some centres undefined) in the same way.
[reply] 34.2

###

The following compounds are listed with their measured TGI values.
Test system: NCI-H522 lung
PROTOCOL SUMMARY: NCI tumour cell line growth inhibition, 48 h
Report the figure in µM without appending any unit label.

Recorded TGI, per entry:
mol_smiles=O=c1oc2ccccc2c(O)c1C(c1cccc(C(c2c(O)c3ccccc3oc2=O)c2c(O)c3ccccc3oc2=O)c1)c1c(O)c2ccccc2oc1=O assay_result=35.6
mol_smiles=COC(=O)c1sc2c(c1C(=O)OC)C(=NC(C)(C)C)SC2=NC(C)(C)C assay_result=37.5
mol_smiles=COC(=O)c1c2c(c(C)[n+]([O-])c1C)C(=O)C(NCc1ccc(F)cc1)=CC2=O assay_result=4.02

[ask] Form field: reported TGI of NNC(=O)c1cc([N+](=O)[O-])ccc1NC(=O)C12CC3CC(CC(C3)C1)C2
[reply] 15.1

###

Tested on: U251 CNS
PROTOCOL SUMMARY: NCI tumour cell line growth inhibition, 48 h
ATTRIBUTE MEASURED: TGI

Recorded TGI, per entry:
compound=[Cl][Hg][c]1ccc2ccccc2c1 attribute_measured=TGI assay_result="2.68 µM"
compound="N#CC(C(=N/O)/C(=N\\O)C(C#N)c1ccccc1)c1ccccc1 (stereo not drawn)" attribute_measured=TGI assay_result="> 100 µM"
compound=COc1ccc(-c2c(-c3ccccc3)c(C)nc3[nH]c(=S)[nH]c(=S)c23)cc1OC attribute_measured=TGI assay_result="> 100 µM"
compound=CN(/N=C/C=N/N(C)C1=NCCCN1)C1=NCCCN1 attribute_measured=TGI assay_result="> 100 µM"

[ask] Form field: reported TGI of CN(C)CCNC(=O)c1cccc2c1Oc1cccc([N+](=O)[O-])c1O2
[reply] 42.8 µM

[ask] Consider next the compound O=C(NCCCl)Nc1ccccc1 in the same way.
[reply] > 100 µM

[ask] Consider next the compound CC[C@@H]([C@H](O)c1ccccc1Cl)[N+](=O)[O-] in the same way.
[reply] > 100 µM

[ask] Consider next the compound Cc1ccc2c(=O)c(-c3nnc(NC4CCCCC4)s3)c[nH]c2n1 in the same way.
[reply] > 100 µM

[ask] Consider next the compound CC(=Nc1cccc(Cl)c1)c1ccncc1 in the same way.
[reply] > 100 µM
